- TARGET DESC: P-gp (Homo sapiens)
- Sequence (P08183 whole entry): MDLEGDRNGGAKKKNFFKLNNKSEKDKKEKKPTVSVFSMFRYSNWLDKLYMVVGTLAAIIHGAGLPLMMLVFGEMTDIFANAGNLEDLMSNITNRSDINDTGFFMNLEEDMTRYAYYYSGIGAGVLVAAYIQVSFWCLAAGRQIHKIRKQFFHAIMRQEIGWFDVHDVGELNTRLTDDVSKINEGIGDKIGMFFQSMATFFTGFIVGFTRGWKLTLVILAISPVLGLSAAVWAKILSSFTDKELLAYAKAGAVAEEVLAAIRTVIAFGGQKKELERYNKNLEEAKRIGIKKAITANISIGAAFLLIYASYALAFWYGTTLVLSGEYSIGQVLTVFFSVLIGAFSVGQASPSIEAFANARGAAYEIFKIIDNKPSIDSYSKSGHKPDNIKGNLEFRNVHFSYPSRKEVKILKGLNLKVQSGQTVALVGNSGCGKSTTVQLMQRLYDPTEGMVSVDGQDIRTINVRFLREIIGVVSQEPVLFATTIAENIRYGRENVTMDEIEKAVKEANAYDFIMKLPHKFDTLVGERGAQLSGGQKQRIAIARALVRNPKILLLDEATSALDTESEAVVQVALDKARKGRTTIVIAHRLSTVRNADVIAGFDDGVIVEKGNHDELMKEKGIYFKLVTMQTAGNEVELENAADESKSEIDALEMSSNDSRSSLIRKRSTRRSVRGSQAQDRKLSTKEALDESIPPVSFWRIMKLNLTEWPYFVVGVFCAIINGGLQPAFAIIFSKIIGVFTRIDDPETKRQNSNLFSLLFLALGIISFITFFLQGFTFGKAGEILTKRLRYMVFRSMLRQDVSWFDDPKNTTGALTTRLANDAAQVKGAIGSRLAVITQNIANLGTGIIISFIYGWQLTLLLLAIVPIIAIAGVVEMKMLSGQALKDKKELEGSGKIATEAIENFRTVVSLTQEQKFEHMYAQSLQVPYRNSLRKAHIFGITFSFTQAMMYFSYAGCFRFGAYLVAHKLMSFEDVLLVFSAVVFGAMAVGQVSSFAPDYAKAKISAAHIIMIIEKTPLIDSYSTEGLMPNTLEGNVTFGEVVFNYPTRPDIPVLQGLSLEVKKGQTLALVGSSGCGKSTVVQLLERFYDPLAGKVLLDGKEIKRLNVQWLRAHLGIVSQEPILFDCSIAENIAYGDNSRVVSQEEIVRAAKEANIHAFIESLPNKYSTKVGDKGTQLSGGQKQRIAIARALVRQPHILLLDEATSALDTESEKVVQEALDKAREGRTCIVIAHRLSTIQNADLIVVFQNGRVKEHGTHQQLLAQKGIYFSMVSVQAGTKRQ
- METHOD SUMMARY: P-gp transport and cell association in MDCKII-MDR1 monolayers
- Format: in vitro ADME
- CONDITION PARAMETERS: dog, MDCK-MDR1
READOUT NAME: Papp B→A at 1 h, 5 μM (×10⁻⁶ cm/s)
// note: answer is a bare numeric in ×10⁻⁶ cm/s

CN1CCC(C)(C)c2cc3c(-c4ccc(C(=O)N5CCCCC5)s4)c4ccc(=[N+](C)C)cc-4[se]c3cc21.[Cl-] [17b]; 16.4

Task item: What Papp B→A at 1 h, 5 μM appears in the records for this compound with P-gp (Homo sapiens)? CN1CCC(C)(C)c2cc3c(-c4ccc(C(=S)N5CCCCC5)s4)c4ccc(=[N+](C)C)cc-4[se]c3cc21.[Cl-] [18b]
Reply: 2.9

---

- METHOD SUMMARY: Absorption spectra in CH3OH
- Assay type: physicochemical
Absorption maximum λmax reference
// note: answer is a bare numeric in nm

Example entries begin here.
CN1CCC(C)(C)c2cc3c(-c4ccc(C(=O)N5CCCCC5)s4)c4ccc(=[N+](C)C)cc-4[se]c3cc21.[Cl-] [17b]; 609
CCN(CC)C(=O)c1ccc(-c2c3ccc(=[N+](C)C)cc-3[se]c3cc4c(cc23)C(C)(C)CCN4C)s1.[Cl-] [15b]; 609
CN1CCC(C)(C)c2cc3c(-c4ccc(C(=S)N5CCCCC5)s4)c4ccc(=[N+](C)C)cc-4[se]c3cc21.[Cl-] [18b]; 608

Task item: May I ask what Absorption maximum λmax has been recorded for CCN(CC)C(=S)c1ccc(-c2c3ccc(=[N+](C)C)cc-3[se]c3cc4c(cc23)C(C)(C)CCN4C)s1.[Cl-] [16b] ?
Reply: 608

---

- System: P-gp
- METHOD SUMMARY: P-gp transport and cell association in MDCKII-MDR1 monolayers
- Assay type: in vitro ADME
- CONDITION PARAMETERS: dog, MDCK-MDR1, with 24 (LSN 335984), 5 μM
Papp at 1 h, 5 μM reference

CN1CCC(C)(C)c2cc3c(-c4ccc(C(=S)N5CCCCC5)s4)c4ccc(=[N+](C)C)cc-4[se]c3cc21.[Cl-] [18b]; ~0.2 ×10⁻⁶ cm/s

The record that follows has no Papp at 1 h, 5 μM shown yet.
Task item: May I ask what Papp at 1 h, 5 μM has been recorded for CN1CCC(C)(C)c2cc3c(-c4ccc(C(=O)N5CCCCC5)s4)c4ccc(=[N+](C)C)cc-4[se]c3cc21.[Cl-] [17b] ?
Reply: ~0.6 ×10⁻⁶ cm/s

---

- METHOD SUMMARY: Absorption spectra in CH3OH
- Format: physicochemical
READOUT NAME: Molar extinction coefficient ε

CCN(CC)C(=S)c1ccc(-c2c3ccc(=[N+](C)C)cc-3[se]c3cc4c(cc23)C(C)(C)CCN4C)s1.[Cl-] [16b]; 9.78 × 10^4 M^–1 cm^–1
CN1CCC(C)(C)c2cc3c(-c4ccc(C(=S)N5CCCCC5)s4)c4ccc(=[N+](C)C)cc-4[se]c3cc21.[Cl-] [18b]; 8.11 × 10^4 M^–1 cm^–1
CCN(CC)C(=O)c1ccc(-c2c3ccc(=[N+](C)C)cc-3[se]c3cc4c(cc23)C(C)(C)CCN4C)s1.[Cl-] [15b]; 7.18 × 10^4 M^–1 cm^–1

The record that follows has no Molar extinction coefficient ε shown yet.
Task item: May I ask what Molar extinction coefficient ε has been recorded for CN1CCC(C)(C)c2cc3c(-c4ccc(C(=O)N5CCCCC5)s4)c4ccc(=[N+](C)C)cc-4[se]c3cc21.[Cl-] [17b] ?
Reply: 8.73 × 10^4 M^–1 cm^–1

---

- System: P-gp
- METHOD SUMMARY: P-gp transport and cell association in MDCKII-MDR1 monolayers
- Type: in vitro ADME
- CONDITION PARAMETERS: dog, MDCK-MDR1, with 24 (LSN 335984), 5 μM
Papp A→B at 1 h, 5 μM reference
// note: answer is a bare numeric in ×10⁻⁶ cm/s

CN1CCC(C)(C)c2cc3c(-c4ccc(C(=O)N5CCCCC5)s4)c4ccc(=[N+](C)C)cc-4[se]c3cc21.[Cl-] [17b]; 0.1

The record that follows has no Papp A→B at 1 h, 5 μM shown yet.
Task item: May I ask what Papp A→B at 1 h, 5 μM has been recorded for CN1CCC(C)(C)c2cc3c(-c4ccc(C(=S)N5CCCCC5)s4)c4ccc(=[N+](C)C)cc-4[se]c3cc21.[Cl-] [18b] ?
Reply: 0.17

---

- METHOD SUMMARY: Steady-state fluorescence in CH3OH
- Type: physicochemical
- CONDITION PARAMETERS: excitation at 532 nm, 3 as standard, ±SD
Quantum yield for fluorescence ΦFL reference

CN1CCC(C)(C)c2cc3c(-c4ccc(C(=S)N5CCCCC5)s4)c4ccc(=[N+](C)C)cc-4[se]c3cc21.[Cl-] [18b]; 0.008 ± 0.001
CCN(CC)C(=S)c1ccc(-c2c3ccc(=[N+](C)C)cc-3[se]c3cc4c(cc23)C(C)(C)CCN4C)s1.[Cl-] [16b]; 0.008 ± 0.001
CN1CCC(C)(C)c2cc3c(-c4ccc(C(=O)N5CCCCC5)s4)c4ccc(=[N+](C)C)cc-4[se]c3cc21.[Cl-] [17b]; 0.009 ± 0.001

Task item: May I ask what Quantum yield for fluorescence ΦFL has been recorded for CCN(CC)C(=O)c1ccc(-c2c3ccc(=[N+](C)C)cc-3[se]c3cc4c(cc23)C(C)(C)CCN4C)s1.[Cl-] [15b] ?
Reply: 0.009 ± 0.001

---

Fluorescence emission maximum λFL reference
- METHOD SUMMARY: Steady-state fluorescence in CH3OH
- Type: physicochemical
- CONDITION PARAMETERS: excitation at 532 nm
// note: answer is a bare numeric in nm

Example entries begin here.
CN1CCC(C)(C)c2cc3c(-c4ccc(C(=O)N5CCCCC5)s4)c4ccc(=[N+](C)C)cc-4[se]c3cc21.[Cl-] [17b]; 634
CCN(CC)C(=S)c1ccc(-c2c3ccc(=[N+](C)C)cc-3[se]c3cc4c(cc23)C(C)(C)CCN4C)s1.[Cl-] [16b]; 635
CN1CCC(C)(C)c2cc3c(-c4ccc(C(=S)N5CCCCC5)s4)c4ccc(=[N+](C)C)cc-4[se]c3cc21.[Cl-] [18b]; 634

Task item: May I ask what Fluorescence emission maximum λFL has been recorded for CCN(CC)C(=O)c1ccc(-c2c3ccc(=[N+](C)C)cc-3[se]c3cc4c(cc23)C(C)(C)CCN4C)s1.[Cl-] [15b] ?
Reply: 636

---

efflux ratio at 1 h, 5 μM reference
- TARGET DESC: UniProt P08183
- METHOD SUMMARY: P-gp transport and cell association in MDCKII-MDR1 monolayers
- Type: in vitro ADME
- CONDITION PARAMETERS: dog, MDCK-MDR1
Write the number on its own, no unit after it.

CN1CCC(C)(C)c2cc3c(-c4ccc(C(=O)N5CCCCC5)s4)c4ccc(=[N+](C)C)cc-4[se]c3cc21.[Cl-] [17b]; 182

Task item: May I ask what efflux ratio at 1 h, 5 μM has been recorded for CN1CCC(C)(C)c2cc3c(-c4ccc(C(=S)N5CCCCC5)s4)c4ccc(=[N+](C)C)cc-4[se]c3cc21.[Cl-] [18b] ?
Reply: 15
